All figures here come from patent US20200297818A1.

# target.system: human glucagon-like peptide 1 receptor (GLP-1 R) (human, UniProt P43220 24-463)
# experiment.notes: cell-based or functional assay
*1 amine or outer side, *2 acyl side, *3 side chain or, on linkers, in order; H or OH if unused. Where no end group is shown, it is not given here. Side-chain parts run from the residue outwards. [ ]: non-standard residue; d: D form. The star is where a group is joined. C20 diacid = O=C(O)CCCCCCCCCCCCCCCCCCC(=O)*; C18 diacid = O=C(O)CCCCCCCCCCCCCCCCC(=O)*; γGlu = O=C(O)[C@H](CCC(=O)[*:2])N[*:1]; AEEA = NCCOCCOCC(=O)O; Aib = CC(C)(N)C(=O)O
EC50 GLP-1 (nM); cAMP response listing for selected binders.
For clarity, give the value followed by its unit.

binder: H-H[Aib]EGSFTSELATILDK([AEEA-Lys-Glu-Lys-γGlu-C20 diacid])QAARDFIAWLIAHKITD-OH [Compound 58]
measurement: 0.089 nM
--
binder: H-H[Aib]EGTFTSELATILDK([AEEA-Lys-Glu-Lys-γGlu-C20 diacid])QAARDFIAWLIEHKITD-OH [Compound 56]
measurement: 0.033 nM
--
binder: H-H[Aib]EGSFTSELATILDK([AEEA-Lys-Glu-Lys-γGlu-C20 diacid])KAARDFIAWLIEHKITD-OH [Compound 59]
measurement: 0.088 nM
--
binder: H-H[Aib]EGTFSSELATILDK([AEEA-Lys-Glu-Lys-γGlu-C20 diacid])QAARDFIAWLIEHKITD-OH [Compound 50]
measurement: 0.31 nM
--
binder: H-H[Aib]EGTFTSELATILDK([Lys-Glu-Lys-γGlu-C20 diacid])QAARDFIAWLIQHKITD-OH [Compound 51]
measurement: 0.02 nM

Input: Look up EC50 GLP-1 (nM); cAMP response: H-H[Aib]EGSFTSELATILDAKAAK([AEEA-Lys-Glu-Lys-γGlu-C20 diacid])DFIAWLIEHKITD-OH [Compound 68]
Output: 0.084 nM

Input: Look up EC50 GLP-1 (nM); cAMP response: H-H[Aib]EGTFSSELATILDK([AEEA-Lys-Glu-Lys-γGlu-C20 diacid])QAARDFIAWLIQHKITD-OH [Compound 48]
Output: 0.47 nM

Input: Look up EC50 GLP-1 (nM); cAMP response: H-H[Aib]EGTFTSELATILDEQAAK([AEEA-AEEA-Lys-Glu-Lys-γGlu-C20 diacid])DFIAWLIEHKITD-OH [Compound 67]
Output: 0.16 nM

Input: Look up EC50 GLP-1 (nM); cAMP response: H[Aib]EGTFSSELATILDK([γGlu-C18 diacid])KAARDFIAWLIEHKITD-OH [Compound 4]
Output: 0.66 nM

Input: Look up EC50 GLP-1 (nM); cAMP response: H-H[Aib]EGTFSSELATILDK([AEEA-Lys-Glu-Lys-γGlu-C18 diacid])QAARDFIAWLIEHKITD-OH [Compound 49]
Output: 0.27 nM

Input: Look up EC50 GLP-1 (nM); cAMP response: H-H[Aib]EGTFTSELATILDK([γGlu-C20 diacid])QAARDFIAWLIQHKITD-OH [Compound 41]
Output: 0.048 nM

Input: Look up EC50 GLP-1 (nM); cAMP response: H-H[Aib]EGTFTSELATILDEQAAK([AEEA-Lys-Glu-Lys-γGlu-C20 diacid])DFIAWLIEHKITD-OH [Compound 65]
Output: 0.13 nM

Input: Look up EC50 GLP-1 (nM); cAMP response: H-H[Aib]EGSFTSELATILDAK([AEEA-AEEA-Lys-Glu-Lys-γGlu-C20 diacid])AARDFIAWLIEHKITD-OH [Compound 63]
Output: 0.31 nM

Input: Look up EC50 GLP-1 (nM); cAMP response: H-H[Aib]EGSFTSELATILDEQAAK([AEEA-Lys-Glu-Lys-γGlu-C20 diacid])DFIAWLIEHKITD-OH [Compound 64]
Output: 0.49 nM

Input: Look up EC50 GLP-1 (nM); cAMP response: H-H[Aib]EGSFTSEK([AEEA-AEEA-Lys-Glu-Lys-γGlu-C20 diacid])ATILDEQAARDFIAWLIEHKITD-OH [Compound 55]
Output: 0.11 nM
